procedure.text: Permeability of the compound at pH 7.4 in PBS incubated for 16 hrs by LC-MS/MS based PAMPA assay
Assay type: ADME
condition.summary: read-out: permeability
readout.name: Papp at 16 h (×10⁻⁶ cm/s)

(a) CC(=O)N[C@H](C(=O)N1C[C@H](O)C[C@H]1C(=O)N[C@H](Cc1ccc(-c2scnc2C)cc1)C(N)=O)C(C)(C)C
(b) CC(=O)N[C@H](C(=O)N1C[C@H](O)C[C@H]1C(=O)N[C@H](Cc1ccc(-c2ccccc2)cc1)C(N)=O)C(C)(C)C
Please indicate which entry, a or b , has the lower recorded Papp at 16 h value. State the label of the item chosen. b
